Record set of pIC50 for target or system RAF proto-oncogene serine/threonine-protein kinase (Homo sapiens).
To interpret pIC50, take it as minus log10 of a concentration measured in moles per litre.

>>> measured_number("COc1ccc(Cn2ncc(NC(=O)c3cc(NC(=O)c4cc(N5CCN(C)CC5)cc(C(F)(F)F)c4)ccc3C)c2N)cc1")
6.62

Let's switch to this compound now.
Input line: Item COc1ccc(Cn2ncc(NC(=O)c3cc(NC(=O)c4cccc(C(F)(F)F)c4)ccc3C)c2N)cc1 : provide pIC50
Output line: 7.65

---

Study target: Mitogen-activated protein kinase 10 (Homo sapiens, UniProt P53779)
Sequence (P53779 whole entry): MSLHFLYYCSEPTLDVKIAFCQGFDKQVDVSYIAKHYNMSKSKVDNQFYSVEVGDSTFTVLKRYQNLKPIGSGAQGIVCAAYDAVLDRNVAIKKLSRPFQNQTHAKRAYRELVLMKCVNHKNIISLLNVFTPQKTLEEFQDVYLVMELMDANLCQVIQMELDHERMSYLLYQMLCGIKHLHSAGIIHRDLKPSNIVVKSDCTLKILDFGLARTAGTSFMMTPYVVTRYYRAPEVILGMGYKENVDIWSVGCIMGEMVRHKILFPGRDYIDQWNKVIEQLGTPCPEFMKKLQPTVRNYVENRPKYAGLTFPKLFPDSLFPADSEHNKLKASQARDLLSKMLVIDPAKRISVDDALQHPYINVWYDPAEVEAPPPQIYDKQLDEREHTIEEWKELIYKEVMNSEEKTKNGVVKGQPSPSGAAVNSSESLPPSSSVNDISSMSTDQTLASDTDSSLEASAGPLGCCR
Experiment description: inhibition of JNK3
Endpoint: IC50

Input line: Item COc1ccc(Cn2ncc(NC(=O)c3cc(NC(=O)Nc4ccc(Cl)c(C(F)(F)F)c4)ccc3C)c2N)cc1 : provide IC50
Output line: > 20 µM

---

Study target: Mitogen-activated protein kinase 1 (Homo sapiens, UniProt P28482)
Sequence (P28482 whole entry): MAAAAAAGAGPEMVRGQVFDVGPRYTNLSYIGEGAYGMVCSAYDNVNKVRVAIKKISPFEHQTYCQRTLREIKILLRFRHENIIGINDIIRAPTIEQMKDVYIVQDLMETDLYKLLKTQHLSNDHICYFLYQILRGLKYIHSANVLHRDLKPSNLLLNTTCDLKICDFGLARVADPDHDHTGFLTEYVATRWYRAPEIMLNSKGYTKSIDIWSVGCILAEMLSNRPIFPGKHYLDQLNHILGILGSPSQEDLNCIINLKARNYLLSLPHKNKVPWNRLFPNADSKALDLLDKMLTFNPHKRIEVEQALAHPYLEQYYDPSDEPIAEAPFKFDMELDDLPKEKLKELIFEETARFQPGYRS
Experiment description: Inhibition of ERK2
Endpoint: IC50 (µM)
The reply should be a number in µM, with the unit left off.

Input line: Item COc1ccc(Cn2ncc(NC(=O)c3cc(NC(=O)Nc4ccc(Cl)c(C(F)(F)F)c4)ccc3C)c2N)cc1 : provide IC50
Output line: 11.4

---

Study target: Cyclin-dependent kinase 2/cyclin E (Homo sapiens)
Experiment description: Inhibition of CDK2/cyclin E
Endpoint: IC50
# output: numeric value plus its unit

Input line: Check Cyclin-dependent kinase 2/cyclin E (Homo sapiens) data and give IC50 for COc1ccc(Cn2ncc(NC(=O)c3cc(NC(=O)Nc4ccc(Cl)c(C(F)(F)F)c4)ccc3C)c2N)cc1 .
Output line: 2.13 nM
